- System: cloned human or rodent CNS receptors, channels, and transporters (PDSP panel)
- assayDetails: PDSP GPCR panel primary binding assays at 10 μM
- conditions: Receptor Sigma 1; primary assay, 10 μM
endpoint: Inhibition 1

Consider the reported Inhibition 1 for these compounds:
compound	Inhibition 1
c1cn2cc(-c3ccc4cn[nH]c4c3)nc(Nc3ccc(N4CCOCC4)cc3)c2n1 [UNC10302678A, Entospletinib (GS-9973)]	24.21%
CCCCNc1ncc2c(-c3ccc(CN4CCN(C)CC4)cc3)cn([C@H]3CC[C@H](O)CC3)c2n1 [UNC2025C, UNC2025]	4.46%
Cl.NC(=O)c1cnc(N[C@@H]2CCCC[C@@H]2N)nc1Nc1cccc(-n2nccn2)c1 [UNC10302682A, P505-15 (PRT06207 HCl)]	15.02%

Then there is this compound:
Look at this compound and give its reported Inhibition 1. O=c1oc2ccccc2cc1-c1cn2cc(Cc3ccc(F)cc3)sc2n1 [UNC10302680A, iMDK] 7.22%

###

- system: cloned human or rodent CNS receptors, channels, and transporters (PDSP panel) (Homo sapiens, UniProt P50406)
- Construct: expressed in transfected cells
- Sequence (P50406 whole entry): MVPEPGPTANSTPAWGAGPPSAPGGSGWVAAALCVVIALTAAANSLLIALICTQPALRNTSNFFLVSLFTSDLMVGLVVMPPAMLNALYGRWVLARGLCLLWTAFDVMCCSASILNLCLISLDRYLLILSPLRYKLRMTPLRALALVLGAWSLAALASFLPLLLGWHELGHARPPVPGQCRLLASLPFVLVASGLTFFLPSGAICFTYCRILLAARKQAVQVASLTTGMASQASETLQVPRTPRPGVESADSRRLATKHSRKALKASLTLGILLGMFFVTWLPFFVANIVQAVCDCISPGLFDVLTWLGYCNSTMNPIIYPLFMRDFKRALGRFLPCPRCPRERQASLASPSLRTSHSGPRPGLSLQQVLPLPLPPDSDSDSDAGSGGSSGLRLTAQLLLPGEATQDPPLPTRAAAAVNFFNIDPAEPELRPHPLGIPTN
- assayDetails: PDSP GPCR panel primary binding assays at 10 μM
- conditions: 5-HT6; primary assay, replicate 2
endpoint: Inhibition 2
Note: a bare number is incomplete; add the unit.

Use these answered entries as a reference point.
compound	endpoint	experimentalValue
O=C(NC1CC1)C(=O)C(Cc1ccccc1)NC(=O)[C@H]1CCC(=O)N1Cc1ccccc1 (stereo partly shown) [UNC10302676A, ABT-957 (Alicapistat)]	Inhibition 2	-8.22%
CCC(=O)N1CCC(NC(=O)Nc2ccc(OC(F)(F)F)cc2)CC1 [UNC10302681A, TPPU]	Inhibition 2	-7.74%
CNc1nc(C)nc(N[C@H]2CCC[C@@H](C(=O)NCc3ccc(C#N)cc3C(F)(F)F)C2)n1 [UNC10302679A, GSK2256294A]	Inhibition 2	-11.55%

Next:
Please look up its Inhibition 2: CC(=O)N1CCC(NC(=O)NC23CC4CC(CC(C4)C2)C3)CC1 [UNC10302683A, AR9281] 17.51%

###

- Test system: cloned human or rodent CNS receptors, channels, and transporters (PDSP panel)
- assayDetails: PDSP GPCR panel primary binding assays at 10 μM
- conditions: Alpha2A; primary assay, mean inhibition
Measured Mean % of individual entries
Write down the numeric answer in % and omit the unit.

Answered examples (3):
molecule	Mean % / %
CC(=O)N1CCC(NC(=O)NC23CC4CC(CC(C4)C2)C3)CC1 [UNC10302683A, AR9281]	-4.95
O=C(NC1CC1)C(=O)C(Cc1ccccc1)NC(=O)[C@H]1CCC(=O)N1Cc1ccccc1 (stereo partly shown) [UNC10302676A, ABT-957 (Alicapistat)]	5.04
CNc1nc(C)nc(N[C@H]2CCC[C@@H](C(=O)NCc3ccc(C#N)cc3C(F)(F)F)C2)n1 [UNC10302679A, GSK2256294A]	-5.79

Moving on to the next molecule.
Lab request: please report Mean % under test system cloned human or rodent CNS receptors, channels, and transporters (PDSP panel) for CCC(=O)N1CCC(NC(=O)Nc2ccc(OC(F)(F)F)cc2)CC1 [UNC10302681A, TPPU] -5.2

###

- assayDetails: Plasma plus brain concentrations at 1 h after IV dose
- Format: in vivo
- conditions: mouse, brain and plasma, CD1 mice, IV 10 mg/kg
endpoint: Kp at 1 h
Please respond with just the number, no unit label.

Field: example entries. Status: answers known.
molecule	endpoint	experimentalValue
CNc1nc(C)nc(N[C@H]2CCC[C@@H](C(=O)NCc3ccc(C#N)cc3C(F)(F)F)C2)n1 [UNC10302679A, GSK2256294A]	Kp at 1 h	0.018
O=C(NC1CC1)C(=O)C(Cc1ccccc1)NC(=O)[C@H]1CCC(=O)N1Cc1ccccc1 (some centres unmarked) [UNC10302676A, ABT-957 (Alicapistat)]	Kp at 1 h	0.015
CCCCNc1ncc2c(-c3ccc(CN4CCN(C)CC4)cc3)cn([C@H]3CC[C@H](O)CC3)c2n1 [UNC2025C, UNC2025]	Kp at 1 h	1.96
CCC(=O)N1CCC(NC(=O)Nc2ccc(OC(F)(F)F)cc2)CC1 [UNC10302681A, TPPU]	Kp at 1 h	0.46

Which Kp at 1 h reading was recorded for the molecule Cl.NC(=O)c1cnc(N[C@@H]2CCCC[C@@H]2N)nc1Nc1cccc(-n2nccn2)c1 [UNC10302682A, P505-15 (PRT06207 HCl)] ? 0.08

Values compiled from paper PMC9005681.
